// values below are reported protein stability index
B1: PLK2 (parent)
chain: YAELGQCSVFPATDAPEQFISQVT

variants of: B1; assay: protein stability index of a GFP-peptide fusion (GPS, HEK-293T) (PSI 1-6); higher = more stable; settings: c terminus: a fixed tail appended;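 further: lentivirally expressed fusions sorted by FACS into six bins by GFP to DsRed ratio, PSI derived from sequencing read proportions per bin multiplied by bin number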
observed_property: protein stability index

1. YAELGQMSVFPATDAPEQFISQVT :: 2.23
2. YAELGACSVFPATDAPEQFISQVT :: 2.18
3. YAELGQCSVFPATDAPEIFISQVT :: 2.02
4. YAELQQCSVFPATDAPEQFISQVT :: 2.53
5. YAELGQCSVFPATDAPEQFISQVY :: 2
6. YAELGQCSVFPATDAPRQFISQVT :: 1.62
7. YAELGQCSVFPATDAPEQFIPQVT :: 2.41
8. YAELGQCSEFPATDAPEQFISQVT :: 3.64
9. YAELGQCSVVPATDAPEQFISQVT :: 3.52
10. YAELGQCSVFPATDLPEQFISQVT :: 2.31
11. YAELGQCSVFPATDAPEQFISQDT :: 3.06
12. YAELGQCSVFPATDAPEQFISQPT :: 2.81
13. YAELLQCSVFPATDAPEQFISQVT :: 1.57
14. YEELGQCSVFPATDAPEQFISQVT :: 4.46
15. YAELGQCSVIPATDAPEQFISQVT :: 2.87
16. YAELGQCSVFYATDAPEQFISQVT :: 2.31
17. YAELGQCSVFPATDAPEQFIIQVT :: 2.64
18. YAELMQCSVFPATDAPEQFISQVT :: 1.98
19. YAEHGQCSVFPATDAPEQFISQVT :: 3.25
20. YAELGQCSVFPATGAPEQFISQVT :: 2
21. YAELGQCSVFPATDAPEQFISQVV :: 1.9
22. YPELGQCSVFPATDAPEQFISQVT :: 3.42
